experiment-summary: chemical genetic growth profiling, strain panel (AID 1159580);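 note: tested at 20 µM; growth read once vehicle control cultures reached saturation at 30 °C; 1 = growth at the plate median or of vehicle wells; lower values mean less growth of the strain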
test-parameters: S. cerevisiae deletion strains, growth OD, locus YMR129W
Out of some 5,500 compounds screened, about 2,000 (36%) were called active. Roughly 18% stayed inconclusive and do not appear here. Cut-off read from the data, not from the text of the source: active = normalized growth mostly below about 0.91 (no sharp cut-off); inconclusive = no clear call, values can overlap the other calls; inactive = mostly above about 0.92. Some of the results follow.
// allowed return values: TRUE = active, FALSE = inactive

CC(=CC1CCC(C)C2C1=C(C)CC2O)C(=O)O (configuration not stated) : FALSE
O=C1C=CC(=O)c2c(O)cccc21 : FALSE
OC[C@H]1O[C@@H](Oc2ccc(O)cc2)[C@H](O)[C@@H](O)[C@@H]1O : FALSE
CC(C)c1cc2c(c(O)c1O)[C@@]1(C(=O)O)CCCC(C)(C)C1CC2 (some centres not stated) : FALSE

Qu. Which outcome did this test record for the compound COc1ccc(CC(=O)c2ccc(O)cc2O)cc1 ?
Ans. FALSE

###

experiment-summary: chemical genetic growth profiling, strain panel (AID 1159580)
test-parameters: S. cerevisiae deletion strains, growth OD, locus YJL168C, strain set2
Among all 5,500 compounds or so, about 2,000 (36%) were called active. Not shown: some 18% with an inconclusive outcome. Rule as the data show it: active = normalized growth mostly below about 0.91 (no sharp cut-off); inconclusive = no clear call, values can overlap the other calls; inactive = mostly above about 0.92. The list shows a part of the results.
Classes to choose from: true (1) for active, false (0) for inactive

Would you please look over these solved cases?
CCCc1ncc(C[n+]2ccccc2C)c(N)n1 : false (0)
COP(=O)(NC(C)=O)SC (configuration not stated) : false (0)
C/C(=C\CO)CC[C@H](C)CCC[C@H](C)CCCC(C)C : true (1)
COc1ccc(NS(=O)(=O)c2ccc(N)cc2)nn1 : false (0)

Qu. Assay outcome for CC(C)=CCC/C(C)=C/CO : what was it?
Ans. false (0)

Qu. Record: CCCCCC/C=C\CCCCCCCc1cccc(O)c1C(=O)O
Ans. false (0)

Qu. How about CC(=O)OCC1=C(C(=O)O)N2C(=O)[C@@H](NC(=O)CSc3ccncc3)[C@H]2SC1 ?
Ans. false (0)

Qu. Another molecule: CCCC(=O)Nc1ccc(OCC(O)CNC(C)C)c(C(C)=O)c1 (configuration not stated)
Ans. false (0)

Qu. How about this molecule: C[N+]1(C)CCCC(OC(=O)C(O)(c2ccccc2)c2ccccc2)C1 (configuration not stated)
Ans. false (0)

Qu. Check O=C(O)c1cc(=O)c2ccccc2[nH]1 too.
Ans. false (0)

Qu. Now try O=c1c(O)cccc2cc(O)c(O)c(O)c12 .
Ans. false (0)

Qu. // repeat for CNC(=O)N(C)c1nnc(C(C)(C)C)s1 and report
Ans. false (0)

###

Parameter: normalized growth. Scope: all listed entries.
experiment-summary: chemical genetic growth profiling, strain panel (AID 1159580)
test-parameters: S. cerevisiae deletion strains, growth OD, locus YPL051W, strain arl3, hits give low values
Screen size: about 5,500 compounds; about 2,000 (36%) were called active. Roughly 18% stayed inconclusive and do not appear here. The list shows a part of the results.
Answer using only a numeral; do not append any unit.

Qu. For the compound Oc1cc2c(cc1O)C(c1ccccc1)CNCC2 (stereo unspecified) , what normalized growth is on record?
Ans. 0.938

Qu. What would you report for O=C1C=CC(=O)c2c(O)cccc21 ?
Ans. 0.97

Qu. Try O=C(c1ccccc1)c1ccc2n1CCC2C(=O)O (stereo unspecified) next.
Ans. 1.04

Qu. Now consider O=C1c2ccccc2C(=O)c2ccccc21 .
Ans. 0.926

Qu. Same question, O=C(O)CCC(=O)OC[C@@H](NC(=O)C(Cl)Cl)[C@H](O)c1ccc([N+](=O)[O-])cc1 this time
Ans. 0.998

###

experiment-summary: chemical genetic growth profiling, strain panel (AID 1159580)
test-parameters: S. cerevisiae deletion strains, growth OD, locus YDR052C, strain DBF4
Out of some 5,500 compounds screened, about 2,000 (36%) were called active. Roughly 18% stayed inconclusive and do not appear here. No stated cut-off is given here; in the data, active means normalized growth mostly below about 0.91 (no sharp cut-off); inconclusive means no clear call, values can overlap the other calls; inactive means mostly above about 0.92. This is one part of the list.
Respond with a class label; see y for active, n for inactive

FC(F)(F)c1ccncc1-c1nc(-c2ccc(Cl)cc2)cs1 : n
O=C(Nc1ccc(F)cc1)c1cc(Br)ccc1O : y

Shifting focus to the compound that follows.
Qu. Give the logged outcome of this assay for the following compound: S=C(NCCc1csc2ccccc12)Nc1ccc(Cl)cc1
Ans. n

###

experiment-summary: chemical genetic growth profiling, strain panel (AID 1159580);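 note: tested at 20 µM; growth read once vehicle control cultures reached saturation at 30 °C; 1 = growth at the plate median or of vehicle wells; lower values mean less growth of the strain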
test-parameters: S. cerevisiae deletion strains, growth OD, locus YLR268W, strain sec22, hits give low values
The whole screen tested about 5,500 compounds, of which about 2,000 (36%) were called active. Another 18% or so got no clear call; they are omitted. The list shows a part of the results.
reported-endpoint: normalized growth
// no unit string in output, number only

COc1cc(O)ccc1C(C)=O : 1.04

Qu. What value of normalized growth has been reported for the following compound? COC(=O)C(O)[C@H]1C(C)(C)[C@@H](OC(C)=O)[C@@H]2CC3=C4CC(=O)O[C@@H](c5ccoc5)[C@]4(C)CCC3[C@@]1(C)C2=O (stereo not given in full)
Ans. 0.983

Qu. What would you report for COC(=O)CC1C(C)(C)C(=O)C2CC3(O)C4=CC(=O)OC(c5ccoc5)C4(C)CCC3C1(C)C2=O (stereo not given) ?
Ans. 0.977

Qu. Again, but for O=C(O)c1cc(=O)c2ccccc2[nH]1
Ans. 1.01

Qu. Would you mind doing CC(C)N=C(N)N=C(N)Nc1ccc(Cl)cc1 as well?
Ans. 1.03

Qu. What about this compound? CNC(=O)Oc1ccccc1OC(C)C
Ans. 0.99

Qu. // query: COC(=O)C[C@H]1C(C)(C)[C@H](O)[C@@H]2CC3=C4CC(O)O[C@@H](c5ccoc5)[C@]4(C)CCC3[C@@]1(C)C2=O (stereo not given in full)
Ans. 0.953

Qu. Input CC(C)Cn1c(=O)n(C)c(=O)c2[nH]cnc21
Ans. 0.978

Qu. How about this compound: NC(=NCCCCCCN=C(N)N=C(N)Nc1ccc(Cl)cc1)N=C(N)Nc1ccc(Cl)cc1
Ans. 0.0678

Qu. Then what about the compound CC(=O)NS(=O)(=O)c1ccc(N)cc1 ?
Ans. 0.945

###

experiment-summary: chemical genetic growth profiling, strain panel (AID 1159580);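 note: tested at 20 µM; growth read once vehicle control cultures reached saturation at 30 °C; 1 = growth at the plate median or of vehicle wells; lower values mean less growth of the strain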
test-parameters: S. cerevisiae deletion strains, growth OD, locus YLL026W
Screen size: about 5,500 compounds; about 2,000 (36%) were called active. Roughly 18% stayed inconclusive and do not appear here. Rule as the data show it: active = normalized growth mostly below about 0.91 (no sharp cut-off); inconclusive = no clear call, values can overlap the other calls; inactive = mostly above about 0.92. Some of the results follow.
The reply should name one outcome from 1.0 (active), 0.0 (inactive)

O=c1c(O)c(-c2ccccc2)oc2cccc(O)c12 : 1.0
O=c1c(O)cccc2cc(O)c(O)c(O)c12 : 1.0
CC(=O)OCC1=C(C(=O)O)N2C(=O)[C@@H](NC(=O)CSc3ccncc3)[C@H]2SC1 : 0.0
CCC[C@@H]1C[C@@H](C(=O)N[C@H]([C@H]2O[C@H](SC)[C@H](O)[C@@H](O)[C@H]2O)[C@H](C)O)N(C)C1 : 0.0
CC12CCC(OC(=O)c3ccccc3)CC1CCc1ccccc12 (configuration not stated) : 0.0

Qu. Per the records of this test, what outcome belongs to CC(C)CCCC(C)N (configuration not stated) ?
Ans. 0.0

Qu. And what about the compound CCCC(=O)Nc1ccc(OCC(O)CNC(C)C)c(C(C)=O)c1 (configuration not stated) ?
Ans. 0.0

Qu. Then CC12CCC(O)CC1CCc1ccccc12 (configuration not stated) ?
Ans. 0.0

Qu. Next compound: COc1ccc(NS(=O)(=O)c2ccc(N)cc2)nn1
Ans. 0.0

Qu. Now try C=C[C@H]1CN2CC[C@H]1C[C@H]2[C@H](O)c1ccnc2ccccc12 .
Ans. 0.0

Qu. Cool, now CC1CC(OC(=O)c2ccccc2O)CC(C)(C)C1 (configuration not stated)
Ans. 0.0

Qu. Query C/C(=C\CO)CC[C@H](C)CCC[C@H](C)CCCC(C)C next
Ans. 1.0

###

experiment-summary: chemical genetic growth profiling, strain panel (AID 1159580);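 note: tested at 20 µM; growth read once vehicle control cultures reached saturation at 30 °C; 1 = growth at the plate median or of vehicle wells; lower values mean less growth of the strain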
test-parameters: S. cerevisiae deletion strains, growth OD, locus YJL187C, strain SWE1, hits give low values
The whole screen tested about 5,500 compounds, of which about 2,000 (36%) were called active. Not shown: some 18% with an inconclusive outcome. Some of the results follow.
Param label: returns t when normalized growth < 1, returns f otherwise, including exact equality.

Nc1ccccc1C(=O)NCCc1ccc(Cl)cc1 : t
O=C1C=CC(=O)c2ccccc21 : t

Qu. # check: normalized growth < 1 for O=C(OCCNc1ccc([N+](=O)[O-])cn1)c1ccc([N+](=O)[O-])o1
Ans. t

Qu. Also O=C(/C=C/c1ccccc1)c1ccc(O[C@@H]2O[C@H](CO)[C@@H](O)[C@H](O)[C@H]2O)cc1O ?
Ans. t

Qu. Also need O=C1c2cccc(O)c2C(=O)c2c(O)cccc21 , thanks.
Ans. t

Qu. Now give it for C/C(=C\CO)CC[C@H](C)CCC[C@H](C)CCCC(C)C too.
Ans. f
